Measured TGI, listed per entry for reference.
- Test system: K-562 leukemia
- assay.remarks: NCI tumour cell line growth inhibition, 48 h

Below, 5 molecules whose answers are already recorded.
CC1=CCC[C@H]2[C@](C)(CC3=CC(=O)C4SCCSC4C3=O)[C@@H](C)CC[C@]12C (some centres undefined)    96.2 µM
CCOC(=O)c1csc(NC(=O)CCCC#N)n1    > 100 µM
C(=N/Nc1ccc(-c2nc3ccccc3[nH]2)cc1)/c1c(-c2ccccc2)[nH]c2ccccc12    11.9 µM
Cc1ccc(C(=O)c2[nH]c(Nc3cc(C)ccn3)c(C(=S)Nc3ccccc3)c2N)cc1    > 100 µM
CC(C)Cc1c(C#N)c(C#N)c(N)n1Cc1ccccc1    > 100 µM

# query: TGI of entry COP(=O)(CC(=O)C1OC(OCc2ccccc2)C(OCc2ccccc2)C(OCc2ccccc2)C1OCc1ccccc1)OC (centres undefined)
> 100 µM

# query: TGI of entry C=C(COC(C)=O)CC(/C=C(\C)CCC=C(C)C)OC(C)=O (centres undefined)
> 100 µM

# query: TGI of entry COC(=O)/C=C\S/C(=C(/c1ccccc1)n1ccc(C(=O)OC)n1)c1ccccc1
> 100 µM

# query: TGI of entry CC(=O)OCCOCBr
> 100 µM

# query: TGI of entry C=C1CC=CC(C)(C)C1C/C=C(\C)C(O)CBr (centres undefined)
> 100 µM

# query: TGI of entry Nc1nc(Nc2ccc(OCc3cccc(F)c3)cc2)c2c(n1)[nH]c1ccc(O)cc12
6.65 µM

# query: TGI of entry CC(=O)c1c(C)n([O-])c2cc(C)c(C)cc2[n+]1=O
> 100 µM

# query: TGI of entry C=CC(=O)N1CCN(c2ncnc3c(F)c(-c4c(O)cccc4F)c(Cl)cc23)CC1
> 100 µM

# query: TGI of entry O=C1c2ccccc2-c2cccc3ccc(Cc4ccccc4)c1c23
> 100 µM

----------
- System: KM12 colon
- assay.remarks: NCI tumour cell line growth inhibition, 48 h
recorded.metric: TGI

Below, 3 molecules whose answers are already recorded.
CCCCCC(=O)Oc1ccc(/C(=C(\C)c2ccc(OC)cc2)c2ccc(OCCN3CCCCC3)cc2)cc1    27 µM
CC(C)(C)c1nc2c(o1)C(=Nc1ccc(F)cc1)c1ccccc1C2=O    52.5 µM
COC(=O)c1c(O)ccc2[nH]c(C)c(C#N)c12    > 100 µM

# query: TGI of entry O=P(O)(O)C(O)(Cn1ccnc1)P(=O)(O)O
> 100 µM

# query: TGI of entry CCCCCCNc1nc(NCCCCCC)c2[nH]c(NCCCCCC)nc2n1
21.1 µM

# query: TGI of entry COc1ccc(CN2C(=O)C(=O)N(C)C2=O)c2ccccc12
> 10 µM

# query: TGI of entry O=c1c2cc3c(=O)n(CCc4ccccc4CO)c(=O)c3cc2c(=O)n1CCc1ccccc1CO
> 100 µM

# query: TGI of entry Cn1c(N)nc2c(nc(OCc3ccccc3)n2C2OC(CO)C(O)C2O)c1=O (stereo unspecified)
> 100 µM

# query: TGI of entry COC(=O)[C@H]1C=C[C@H](OC2OC(COC(C)=O)C(OC(C)=O)C(OC(C)=O)C2OC(C)=O)n2c(=O)n(-c3ccccc3)c(=O)n21 (stereo partly specified)
25.1 µM

# query: TGI of entry O=C1c2ccccc2-c2cccc3ccc(Cc4ccccc4)c1c23
> 100 µM

# query: TGI of entry CNC(=O)c1ccc(-c2cnc3ncc(Cc4ccc5ncccc5c4)n3n2)cc1F
> 100 µM

----------
- Tested on: CAKI-1 renal
- assay.remarks: NCI tumour cell line growth inhibition, 48 h; in the data active means GI50 below about 0.43 µM; inactive means the rest
Give one outcome, nothing more. List: active, inactive

Before answering, review these 3 worked examples.
Cc1sc(C)c(-c2ccc(CO)o2)c1-c1ccc(CO)o1    inactive
CNC(=O)c1cc(Oc2ccc(NC(=O)Nc3ccc(Cl)c(OC(F)(F)F)c3)c(F)c2)ccn1    inactive
C=C1CC(COc2cc(Cl)nc(N)n2)C1    inactive

Next, consider the following molecule.
So what was the verdict on Cc1ccc(-c2nc(C(Cl)Cl)n3nc(-c4ccccc4)cc3n2)cc1 in this test?
active

----------
- System: SW-620 colon
- assay.remarks: NCI tumour cell line growth inhibition, 48 h
Measured TGI, listed per entry for reference.

CCOC(=O)c1ccc(C(=O)/C(C(=O)OC(C)(C)C)=C2\CCCN2C)n1C    > 100 µM
CCOC(=O)C1=C(C)NC(=O)N([N+](=O)[O-])C1c1ccccc1C(F)(F)F (configuration not stated)    > 100 µM
CCC1C(=O)OCc2c1cc1n(c2=O)CCC12OCCO2 (configuration not stated)    > 100 µM
Nc1nc(Nc2ccc(OCc3cccc(F)c3)cc2)c2c(n1)[nH]c1ccc(O)cc12    6.26 µM
NC1=NC(=O)C(CC(=O)Nc2ccc([N+](=O)[O-])cc2[N+](=O)[O-])S1 (configuration not stated)    > 100 µM
COc1ccc2c(c1)[C@@]13CCN4CC5=CCO[C@H]6CC(=O)N2[C@H]1[C@H]6[C@H]5C[C@H]43    > 100 µM
Oc1c(Br)cc(CN(Cc2cc(Br)c(O)c(Br)c2)C2CCCCC2)cc1Br    > 100 µM
COc1ccc2c(-c3cc4ccccc4o3)cc(=O)oc2c1    > 100 µM

# query: TGI of entry Clc1ccc(CNc2nc3ccccc3nc2-c2cccs2)c(Cl)c1
> 100 µM

# query: TGI of entry O=C(NCCCNCCCCNCCCNC(=O)C(F)(F)F)C(F)(F)F
> 100 µM

# query: TGI of entry CCOC(=O)C(C)NC(=O)N(C)C12CC3CC(CC(C3)C1)C2 (configuration not stated)
494 µM

# query: TGI of entry COc1cc2nc(-c3c(F)cccc3F)n(Cc3c(F)cccc3F)c2cc1Cc1c(F)cccc1F
> 100 µM

# query: TGI of entry Cc1cccc(NC(Nc2cccc(C)c2)=C(C(Cl)=C(Cl)Cl)[N+](=O)[O-])c1
34.2 µM

# query: TGI of entry O=C(CN=C(CN(c1ccccc1)c1ccccc1)Oc1c(Cl)cc(Cl)cc1Cl)n1cnc2ccccc21
> 100 µM

# query: TGI of entry O=C(O)c1cc2ccccc2c(S(=O)(=O)O)c1O
> 100 µM

# query: TGI of entry COc1cc(/C=C/C(=N\NC(=O)c2ccccc2)c2sc(Nc3ccc(Cl)c(Cl)c3)nc2C)ccc1O
> 100 µM

# query: TGI of entry O=C(/C=C1\C[C@H]2C=Nc3ccccc3C(=O)N2C1)NCCCCCNC(=O)/C=C1\C[C@H]2C=Nc3ccccc3C(=O)N2C1
5.93 µM

----------
- Test system: TK-10 renal
- assay.remarks: NCI tumour cell line growth inhibition, 48 h
recorded.metric: GI50

CCN(CCO)CCNc1ccc(C)c2sc3cc(Cl)ccc3c(=O)c12    1.8 µM
COc1cc(-c2cn(C)c(=O)c(C)c2C)cc(OC)c1CN1CC[C@H](N2CCN(c3ccc(N[C@H]4CCC(=O)NC4=O)cc3F)CC2)C(F)(F)C1    12 µM
Clc1ccc(OCc2nnc3n2N=C(c2ccc(Cl)cc2Cl)CS3)c(Cl)c1    25.1 µM
CNc1nc(NC2CCCC2)nc(Sc2ccc(OC)cc2)n1    > 10 µM
CN1CCN(Cc2ccc(NC(=O)c3ccc(C(C)(C)C)c(C#Cc4cnc5cccnn45)c3)cc2C(F)(F)F)CC1    2.62 µM

# query: GI50 of entry Cc1ncc(NC(=O)c2ccc(CN3CCN(C)CC3)c(C(F)(F)F)c2)cc1Nc1nccc(-c2cccnc2)n1
21.6 µM

----------
- Tested on: DU-145 prostate
- assay.remarks: NCI tumour cell line growth inhibition, 48 h
Measured TGI, listed per entry for reference.

CCN(CC(=O)O)CC(=O)O    > 100 µM
COc1ccc(/C=N/Nc2nc3ccccc3c(=O)n2-c2ccccc2)c(OCc2ccccc2)c1    > 100 µM
Cc1ccc(-n2cc(-c3ccc(Cl)cc3)c3c2N=CN2NC(c4ccco4)=NC32)cc1 (stereo unspecified)    > 100 µM
CNC(=O)c1cn(C[C@H](F)CCc2ccc(NC(=O)Cc3cc(OC4CC(F)(F)C4)cc(C)n3)nn2)nn1    > 100 µM
COc1ccc(CN2C(=O)C(=O)N(C)C2=O)c2ccccc12    > 10 µM

Here is the next item to consider.
I'm curious: which TGI was measured for COc1ccc(-c2cc(-c3cc(Cl)ccc3Cl)nc3nc(=S)[nH]c(N)c23)cc1 tested on DU-145 prostate?
> 100 µM

----------
- System: U251 CNS
- assay.remarks: NCI tumour cell line growth inhibition, 48 h
recorded.metric: TGI

O=P(O)(O)C(O)(Cn1ccnc1)P(=O)(O)O    > 100 µM

# query: TGI of entry COC(=O)C1=C(C)N2[C@H](C(=O)O)CS[C@@]2(C)[C@H](C(=O)OC)[C@H]1c1cccc([N+](=O)[O-])c1
> 100 µM

# query: TGI of entry COc1ccccc1C(=O)c1ccc2ccccc2c1
> 100 µM

# query: TGI of entry O=C(NCCCNCCCCNCCCNC(=O)C(F)(F)F)C(F)(F)F
> 100 µM

# query: TGI of entry CS(=O)(=O)Nc1ccc(-c2ccc3c(NC(=O)C4CC4)n[nH]c3c2)cc1
> 25 µM

# query: TGI of entry Nc1n[nH]c2ccccc12
> 100 µM
